concentration at 6 h values, listed per item
Assay: Metabolite profile in rat liver
Format: in vivo, male Sprague-Dawley rats
Conditions: male, Sprague-Dawley, rat, liver, po, 100 mg/kg, group 2 (PO dose) pooled liver, 6 h; read-out: liver concentration as μg equivalents/g
Experimental: Homogenates were prepared on dry ice in 70% methanol-30% water containing 20 mM EDTA and 20 mM EGTA (about 1× (w/v) weight of the liver) and were stored frozen. […] The supernatant was transferred to a tube and total volume was measured. […] Radioactivity of each supernatant was determined by LSC of duplicate aliquots (100 μL each) for extraction recovery. […] Duplicate aliquots of the reconstituted samples were analyzed by LSC. Each sample was analyzed by HPLC method 2. […]
Reported endpoint: concentration at 6 h (ng/g)

{"Compound": "C[C@@]1(O)[C@H](O)[C@@H](COP(=O)(O)OP(=O)(O)O)O[C@H]1n1cnc2c(=O)[nH]c(N)nc21", "Result unit": "ng/g", "Observed result": 1550}
{"Compound": "C[C@@]1(O)[C@H](O)[C@@H](CO)O[C@H]1n1cnc2c(=O)[nH]c(N)nc21 [2′-C-methyl guanosine, 9-(2-C-methyl-β-D-ribofuranosyl)guanine, reference compound]", "Result unit": "ng/g", "Observed result": 8760}
